- target_or_system: Homeobox protein Hox-A13 (Mus musculus)
- assay: inhibitors of HoxA13-DNA binding, primary screen, biochemical, fluorescence polarization, labeled oligonucleotide (AID 1185)
- measurement_conditions: 15 min, higher = more signal, called active from +8 up or from −8 down
endpoint: z-score
I'd appreciate a reply containing only the number, no unit.

Look up z-score for this compound: CCOC(=O)[C@H]1C[C@H]2O[C@@]23C[C@H]1C(=O)N1CCCC1[C@@H]3O[Si](C)(C)C(C)(C)C (some centres undefined)
-5.3

Another: `COC(=O)c1c(CC[C@@H](CO)NC(=O)N[C@@H](Cc2ccccc2)Cn2cc(C3(O)CCCCC3)nn2)oc(C(C)=O)c1C(=O)OC`
-5.32

Check `C=CC[C@@H](OC(=O)Nc1ccc(OC)cc1)c1ccc(O)c2ccccc12` too.
-0.5

Further, for `COC(=O)[C@@]1(Cc2ccccc2)[C@H]2c3cc(C(=O)N(C)C)n(Cc4cc(C)n(C)n4)c3C[C@H]2CN1C(=O)c1ccccc1` ?
-5.13

----------
- target_or_system: Torsin-1A (Homo sapiens) (UniProt O14656)
- Sequence (O14656 whole entry, looked up): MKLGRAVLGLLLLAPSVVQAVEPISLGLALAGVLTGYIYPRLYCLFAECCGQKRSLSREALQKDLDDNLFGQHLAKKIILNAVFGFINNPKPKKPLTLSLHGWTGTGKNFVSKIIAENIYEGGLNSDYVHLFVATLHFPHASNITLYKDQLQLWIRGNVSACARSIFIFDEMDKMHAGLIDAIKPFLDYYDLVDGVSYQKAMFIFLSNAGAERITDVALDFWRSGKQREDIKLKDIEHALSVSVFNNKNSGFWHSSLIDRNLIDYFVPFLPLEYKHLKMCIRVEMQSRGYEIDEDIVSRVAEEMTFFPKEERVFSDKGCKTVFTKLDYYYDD
- assay: torsin A binders from cell lysate, primary screen, small-molecule microarray, wild-type, 635/667 nm (AID 1149)
- measurement_conditions: COS7 hTOR1A-WT lysate, 635 nm fluorescence, higher = more signal
endpoint: composite z-score
No unit in the answer, only the number.

Fill in the recorded composite z-score for this compound, with Torsin-1A (Homo sapiens) (UniProt O14656) as test system: `O=C1O[C@H](c2ccccc2)[C@H](c2ccccc2)N2[C@H]1[C@@H](C(=O)Nc1nc3ccccc3s1)[C@]1(C(=O)Nc3ccccc31)[C@H]2c1ccc(O)cc1`
-0.0245

O=C(OCCF)C1=CCC(c2cccc(Cl)c2)O1 (stereo not drawn) , same question.
1.09

Repeat for the following compound: `CCOC(=O)C[C@H]1[C@H](OC(=O)c2ccc(-c3ccccc3)cc2)[C@@H](NC(=O)c2ccc3ccccc3c2)c2cc(OCCCO)ccc2N1C(=O)Cc1ccc(OC)cc1`
0.0044

Param item: `O=c1cccc(CCc2ccccc2)o1`
-0.221

Please answer likewise for CCCCCN1CC=CC23O[C@@H]4/C=C\CCCOC(=O)C4[C@H]2C(=O)N(CCCCCCO)[C@@H]3C1=O (stereo partly drawn)
0.61

Also check `COc1ccc(CCNC(=O)[C@@]2(c3ccc([N+](=O)[O-])cc3)CC(=O)N(CC34CC5CC(CC(C5)C3)C4)[C@@H]2c2ccc(CO)cc2)cc1`
0.246

Now give it for `COCCCNC(=O)[C@@]1(CCC(=O)OC(C)(C)C)N=C(c2ccc(OCCCO)cc2)O[C@H]1c1ccccc1CN=[N+]=[N-]` too.
1.23

Try this compound too: `C[C@]1(C(=O)NCc2ccccc2)c2ccccc2C(=O)N(Cc2ccc(OC(F)(F)F)cc2)[C@H]1c1ccc(CO)cc1`
-0.0977

----------
- target_or_system: Luciferin 4-monooxygenase (Photinus pyralis)
- assay: firefly luciferase enzyme inhibitors, primary screen, biochemical, luminescence, purified enzyme, 2006 set (AID 1141);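 note: cell-free assay with purified firefly luciferase at 100 ng per well in PBS; test concentration not given here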
- measurement_conditions: SteadyGlo luminescence, 30 min, higher = more signal, called active from +8 up or from −8 down
I'd be grateful if you could share measured z-score for these entries.
Enter a number only.

I have this compound here, `O=C1O[C@H](c2ccccc2)[C@H](c2ccccc2)N2[C@H]1[C@@H](C(=O)O)[C@]1(C(=O)Nc3ccc(C#CC4(O)CCCCCC4)cc31)[C@H]2c1ccc(OCCO)cc1` , and I need its recorded z-score.
-2.75

Try the compound CCOC(=O)C1=CCC(c2ccc(C#N)cc2)N(S(=O)(=O)c2ccc(C)cc2)C1 (stereo not drawn)
0.115

For `COC(=O)C(CC#Cc1ccc2c(c1)[C@]1(C(=O)N2)[C@H](c2ccc(OCCO)cc2)N2[C@H](c3ccccc3)[C@H](c3ccccc3)OC(=O)[C@H]2[C@@H]1C(=O)NC[C@H](O)c1ccccc1)C(=O)OC` then?
-1.67
